# melting point annotations

Use these answered entries as a reference point.
compound	melting point
Cc1cc(C)c(C(=O)O)cc1N	203 to 205 °C
Nc1ccccc1C(=O)NCCCN1CCOCC1	194 to 198 °C
COc1ccc(S(=O)(=O)NC(CCC(N)=O)C(=O)O)cc1 (stereo not given)	171 to 173 °C
CC1CN(C(=O)CCl)CC(C)O1 (stereo not given)	61 to 63 °C

**Query** Looking for the measured melting point of COc1ccc(Nc2n[nH]c(N)c2C#N)cc1 , can you help?
**Result** 119 to 121 °C

**Query** Consider next the compound CCn1cnnc1-c1ccc(C(=O)O)cc1 in the same way.
**Result** 211 to 213 °C

**Query** Please give the result for CN(C)C(=O)C1CCC(C(=O)O)CC1 (stereo not given) too.
**Result** 169 to 171 °C

**Query** And CN(Cc1ccccc1)C(=O)NCCC(=O)O ?
**Result** 120 to 122 °C

---

propertyMeasured: melting point

compound	melting point
Cc1cc(C(=O)O)nn1-c1ccc(Cl)cc1	139 to 141 °C
Cc1nc(C)c(C(=O)O)o1	219 to 221 °C
N#Cc1ccc(OC(F)F)c(N)c1	86 to 88 °C
Cc1nn(-c2ccccc2)c(C(F)F)c1C(=O)O	206 to 208 °C

**Query** May I ask what melting point has been recorded for CC(C)C(Br)C(=O)c1ccccc1 (stereo not given) ?
**Result** 49 to 51 °C

---

Consider the following molecules and their measured melting point readings.

**Query** So what does the record say about melting point for CCOC(=O)C1CCCN1S(N)(=O)=O (configuration not stated) ?
**Result** 123 to 125 °C

---

Readings of melting point for the listed compounds

These recorded examples may help you get a feel for the data.
compound	propertyMeasured	val
O=C(O)C1(c2ccc(F)cc2)CC1	melting point	126 to 128 °C
O=C(O)c1nc(-c2cccs2)n(-c2cccc(F)c2)n1	melting point	162 to 164 °C
Nc1cccc(NC(=O)CCn2ccnc2)c1	melting point	125 to 127 °C

**Query** Sample CSc1ccc(S(=O)(=O)Cl)cc1 — what was its melting point?
**Result** 46 to 48 °C

**Query** Try the compound Cc1cc(OC(C)C(=O)O)ccc1C(C)C (stereo unspecified)
**Result** 92 to 94 °C

**Query** Consider next the compound CC(=O)Nc1nc(C)c(S(=O)(=O)Cl)s1 in the same way.
**Result** 158 to 160 °C

**Query** Would you kindly repeat that for O=C(O)CSCc1ccc(Cl)c(Cl)c1 ?
**Result** 67 to 69 °C

**Query** Follow-up entry: Cc1ccc(C(=O)O)cc1S(=O)(=O)N1CCCCC1
**Result** 179 to 181 °C

**Query** Next up: Nc1ccnn1Cc1cccc2ccccc12
**Result** 136 to 140 °C

**Query** Next record, please: Cc1ccc(C)c(-n2nnnc2S)c1
**Result** 129 to 131 °C

**Query** And for Nc1cccc(-c2cc[nH]n2)c1 ?
**Result** 137 to 139 °C

**Query** What about Cc1ncc(CN)c(O)n1 ?
**Result** 194 to 196 °C

**Query** Subsequent entry: COc1ccc(Br)cc1C(N)=S
**Result** 143 to 145 °C

**Query** Let us now turn to O=C(O)C=C(C1CC1)C1CC1
**Result** 134 to 136 °C

**Query** Subsequent entry: Cc1n[nH]c(C)c1S(=O)(=O)N1CCOCC1
**Result** 82 to 83 °C

**Query** Query NNC(=O)Cc1cn2ccsc2n1 next
**Result** 97 to 101 °C

---

propertyMeasured: melting point

**Query** If you can, please state the reported melting point value of CC(C)(C)C(=O)C(Cl)Cl .
**Result** 50 to 52 °C

**Query** And for O=C(O)CNCCO ?
**Result** 184 to 186 °C

**Query** And then Nc1cc(N2CCCC2=O)ccc1Cl , what is it?
**Result** 139 to 141 °C

**Query** What do you get for CC(C)(C)c1ccc(CC(=O)O)cc1 ?
**Result** 76 to 78 °C

**Query** What about this molecule? CCOCCOc1ccc(Br)cc1/C=C/C(=O)O
**Result** 109 to 111 °C

**Query** Same lookup for COc1ccc(C(=O)O)c(I)c1 , please.
**Result** 182 to 184 °C

---

Recorded melting point values for a group of compounds are listed next.

Example results:
compound	melting point
Clc1ccc(NCc2cccnc2)cc1	98 to 100 °C
Nc1cccc(-n2ccnc2)c1	112 to 114 °C
Nc1cc(N2CCNC2=O)ccc1Cl	224 to 226 °C
O=C(O)Cn1ncc2ccc([N+](=O)[O-])cc21	219 to 221 °C
N#Cc1cc(F)cc(CO)c1	59 to 61 °C
Nc1ccccc1CC(F)(F)F	44 to 46 °C
CCc1nc2ccccc2n1CC#N	104 to 106 °C
O=C(O)c1cnn(Cc2ccccc2Cl)c1	144 to 146 °C

**Query** For COc1ccc([N+](=O)[O-])cc1S(=O)(=O)Cl , what is its reported melting point?
**Result** 85 to 87 °C

**Query** Then N#Cc1ccc(N2CCCC(N)C2=O)cc1 (stereo not given) ?
**Result** 101 to 103 °C

**Query** // query: CCNC(=O)CCCl
**Result** 64 to 66 °C

**Query** What would you report for Cc1cc(C=O)c(C)n1-c1cccc(C(F)(F)F)c1 ?
**Result** 103 to 105 °C

**Query** Would you mind doing CNc1cc(-c2cccc(OC)c2)[nH]n1 as well?
**Result** 109 to 111 °C

**Query** One more compound: Cc1cc(C=O)c(C)n1C1CCCCC1
**Result** 75 to 77 °C

**Query** Also Cc1oncc1C(=O)Nc1ccc(N)c(C(F)(F)F)c1 , if possible.
**Result** 196 to 198 °C

**Query** How about CC(C)C1=NN(C)C(=O)C1 ?
**Result** 110 to 112 °C

---

propertyMeasured: melting point

Known melting point results, listed for orientation:
compound	val
CNc1ncccc1C(=O)O	220 to 222 °C
O=C(O)c1ccc2c(=O)n3c(nc2c1)CCC3	354 to 356 °C

**Query** Request the reported melting point associated with O=S1(=O)NN=Cc2ccccc21
**Result** 141 to 143 °C

**Query** One more compound: O=C(O)c1cc(Br)nn1-c1ccc(F)cc1
**Result** 177 to 179 °C

**Query** What do you get for Nc1ncncc1CO ?
**Result** 165 to 167 °C

**Query** Repeat with O=C(O)c1ccsc1C(=O)O
**Result** 268 to 270 °C

**Query** What do you get for Cc1ccc(S(N)(=O)=O)cc1N ?
**Result** 176 to 178 °C

**Query** Next up: Oc1ccc(C2=Nn3c(nnc3-c3ccc(Br)cc3)SC2)cc1O
**Result** 269 to 271 °C

**Query** What about NC(=O)c1ccc(NCc2ccccc2)c(N)c1 ?
**Result** 169 to 171 °C

**Query** Another compound to check: O=[N+]([O-])c1ccc(Cl)c2cccnc12
**Result** 130 to 138 °C

---

propertyMeasured: melting point

**Query** Request the reported melting point associated with CS(=O)(=O)c1ccc(-c2nnc(N)o2)cc1
**Result** 297 to 299 °C

**Query** Again, but for NNC(=O)c1cccc(S(=O)(=O)N2CCCC2)c1
**Result** 153 to 155 °C

**Query** What do you have for O=C(O)Cc1cc(=O)n(C2CCS(=O)(=O)C2)[nH]1 (stereo not drawn) ?
**Result** 168 to 170 °C

---

propertyMeasured: melting point

molecularString	melting point
O=[N+]([O-])c1cnc(O)c(Cl)c1	198 to 200 °C

**Query** Would you kindly share the measured melting point for CC1(COS(C)(=O)=O)COC1 ?
**Result** 32 to 34 °C

**Query** Proceed to O=C(CCc1ccccc1)Cc1ccccc1
**Result** 41 to 43 °C

**Query** Input Nc1cc(-c2ccccc2)nn1CCO
**Result** 142 to 144 °C

---

Examples of molecules with documented melting point follow.

Some molecules with recorded melting point:
molecule	melting point
CCCOc1c(Cl)cc(C#N)cc1OC	31 to 33 °C
OC(CNCc1ccccc1)C(F)(F)F (stereo unspecified)	58 to 60 °C
CCc1cc(OCC(=O)O)ccc1Cl	143 to 145 °C

**Query** Recorded melting point for O=C(c1cccnc1O)N1CCCNCC1 , please?
**Result** 157 to 159 °C

**Query** What about this molecule? O=C(O)CCC(=O)c1ccc(S(=O)(=O)Cl)cc1
**Result** 126 to 128 °C

**Query** Now give it for Cc1nn(C)c(C)c1C(=O)C(N)=O too.
**Result** 182 to 184 °C

**Query** Further, for O=C1NC(=O)C2(CCC2)N1 ?
**Result** 222 to 224 °C

**Query** Now the same for O=C(Cn1cccn1)NC1CCCCC1
**Result** 116 to 118 °C

**Query** Thanks! And CCOc1cc(C#N)cc(Br)c1O ?
**Result** 140 to 142 °C

**Query** Also, Cc1cc(I)ccc1[N+](=O)[O-] please.
**Result** 79 to 81 °C

**Query** Also Fc1ccccc1-c1nnc(CCl)o1 ?
**Result** 86 to 88 °C

All values here come from a melting point compilation (Tetko et al.).
